# test.summary: self-splicing fitness, log relative to wild type (ln ratio); higher = more splicing; Tetrahymena group I intron in knt gene, E. coli kanamycin selection, DiMSum; sequences stand for … in CUCUCU…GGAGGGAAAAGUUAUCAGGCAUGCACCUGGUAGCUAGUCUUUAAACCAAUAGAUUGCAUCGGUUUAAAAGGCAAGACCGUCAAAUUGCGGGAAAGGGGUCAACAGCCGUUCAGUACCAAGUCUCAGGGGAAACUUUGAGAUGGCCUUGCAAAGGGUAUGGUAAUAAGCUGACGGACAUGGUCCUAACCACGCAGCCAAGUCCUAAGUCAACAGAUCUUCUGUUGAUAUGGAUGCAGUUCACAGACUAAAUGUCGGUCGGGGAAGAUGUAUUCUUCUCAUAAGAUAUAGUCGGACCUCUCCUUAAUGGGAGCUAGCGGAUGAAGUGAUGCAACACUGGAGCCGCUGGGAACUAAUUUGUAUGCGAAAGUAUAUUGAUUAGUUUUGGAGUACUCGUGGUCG;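 further: selection with 25 µg/mL kanamycin versus none on LB agar overnight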
# condition.set: 37 °C
Outcome: 1.0 for self-splicing fitness (ln) of at least -0.6; 0.0 for anything lower.

Before answering, review these 3 worked examples.
| seq | discrete.label |
| --- | --- |
| CAAAAGCAAUAUUACGUUUA | 0.0 |
| GUGCAGCAAUAUUACGUUUC | 1.0 |
| GCCUAGCAAUAUUACGUUUC | 0.0 |

Enquiry: State whether the measured self-splicing fitness (ln) reaches -0.6, counting equality as reaching it, for "UUUCAGCAAUAUUACGGAUA"
Return: 1.0

Enquiry: Another sequence to look at: "CCGGAGCAAUAUUACGCGAA"
Return: 0.0

Enquiry: Another sequence to look at: "AUACAGCAAUAUUACGGCUA"
Return: 1.0

Enquiry: Another sequence to look at: "GGACAGCAAUAUUACGGAGC"
Return: 0.0

Enquiry: Another sequence to look at: "CUAGAGCAAUAUUACGCCCG"
Return: 1.0
